TARGET_OR_SYSTEM: Sigma non-opioid intracellular receptor 1 (Homo sapiens)
Sequence (Q99720 whole entry): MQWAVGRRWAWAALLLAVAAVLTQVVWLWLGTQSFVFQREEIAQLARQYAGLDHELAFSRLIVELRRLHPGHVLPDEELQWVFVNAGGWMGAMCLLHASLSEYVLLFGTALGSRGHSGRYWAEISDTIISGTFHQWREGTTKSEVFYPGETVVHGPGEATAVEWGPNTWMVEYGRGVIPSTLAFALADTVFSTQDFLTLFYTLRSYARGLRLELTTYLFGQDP
ASSAY_NOTES: Binding affinity to sigma1 receptor
Let's look at some molecules and their measured Ki.

// worked examples, Ki included
MOLECULE: FC1CCNC(C2COC(c3ccccc3)(c3ccccc3)O2)C1 (racemic)
Ki: > 0.8 µM
--
MOLECULE: OC1CCNC(C2COC(c3ccccc3)(c3ccccc3)O2)C1 (racemic)
Ki: > 0.8 µM
--
MOLECULE: O=C1CCNC(C2COC(c3ccccc3)(c3ccccc3)O2)C1 (racemic)
Ki: > 0.8 µM
--
MOLECULE: c1ccc(C2(c3ccccc3)OCC(C3CCCCN3)O2)cc1 (racemic)
Ki: > 0.8 µM

Kindly consider the entry below.
Please fill in: Ki reported for FC1(F)CCNC(C2COC(c3ccccc3)(c3ccccc3)O2)C1 (racemic) = > 0.8 µM
